Source: ChEMBL document CHEMBL3871273

test system: Candida albicans; assay: Antifungal activity against Candida albicans SC5314 after 48 hrs by broth microdilution method; type: functional; details: SC5314, 48 h
Quick reference: MIC80 of the listed items.

Illustrative cases are given below, each with its answer.
# Compound, Subject Of Test, MIC80
records = [
    ("COC1=C(c2ccccc2)C(=O)C=C(c2ccccc2)C1=O", "Candida albicans", "> 128 µg/mL"),
    ("COc1c(O)c(-c2ccccc2)cc(O)c1-c1cc(O)ccc1O", "Candida albicans", "64 µg/mL"),
]

Q: Answer with the recorded MIC80 of COC1=C(c2ccccc2)C(=O)c2oc3ccccc3c2C1=O only.
Ans: > 128 µg/mL

Q: // fetch MIC80 given entry COC1=C(c2ccc(O)cc2)C(=O)C=C(c2ccccc2)C1=O
Ans: 8 µg/mL
